Data credit: ChEMBL document CHEMBL5223082

System: Staphylococcus aureus
Experiment: Antibacterial activity against Vancomycin-resistant Staphylococcus aureus 4 assessed as inhibition of bacterial growth incubated for 18 to 24 hrs by CLSI microbroth dilution method
Assay type: functional
Settings: time 18-24 hrs

- Query smiles: "CCCCCCCCNC(=O)C[N+](C)(C)CCCNC(=O)c1ccc(CN[C@@]2(C)C[C@H](O[C@H]3[C@H](Oc4c5cc6cc4Oc4ccc(cc4Cl)[C@@H](O)[C@@H](NC(=O)[C@@H](CC(C)C)NC)C(=O)N[C@@H](CC(N)=O)C(=O)N[C@H]6C(=O)N[C@H]4C(=O)N[C@H](C(=O)N[C@H](C(=O)O)c6cc(O)cc(O)c6-c6cc4ccc6O)[C@H](O)c4ccc(c(Cl)c4)O5)O[C@H](CO)[C@@H](O)[C@@H]3O)O[C@@H](C)[C@H]2O)cc1"
  MIC / µM: 3.7
